measured_target: T1, human IL-33 (R&D Systems, #3625-IL-010/CF) (human, UniProt O95760 112-270)
T1 construct: Commercial recombinant protein; also called hIL-33; interleukin-33
T1 sequence (looked up): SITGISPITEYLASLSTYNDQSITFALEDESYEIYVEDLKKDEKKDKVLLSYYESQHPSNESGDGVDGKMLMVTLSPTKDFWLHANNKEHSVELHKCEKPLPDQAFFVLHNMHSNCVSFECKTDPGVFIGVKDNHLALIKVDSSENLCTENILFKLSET
assay_notes: SPR 25C pH7.4, mAb captured
observed_property: koff (s⁻¹)
All answers are understood in s⁻¹, so give the number only.

binder	observed_property	reported_result
H4H9666P (antibody, human IgG4, V domains shown, Human IgG4 Fc (H4H)) VH: QVQLVQSGAEVKKPGASVKVSCKASGYTFTSYGISWVRQAPGQGLEWMGWIRAYNGYTNYAQKFQGRVTMTTDTSTNTAYMELRTLNSDDTAVYYCARDRYSGSFHGNFDYWGQGTLVTVSS VL: DIQMTQSPSSVSASVGDRVTITCRASQGIFSWLAWYQQKPGKAPKVLIYAASNLESGVPSRFSGSGSGTDFTLTISSLQPEDFATYYCQQANSLPLTFGGGTKVEIK	koff	0.00028

Here is another binder to look at.
Consider the binder H4H9633P (antibody, human IgG4, V domains shown, Human IgG4 Fc (H4H)) VH: EVQLVESGGGLVQPGGSLRLSCAASGFTFSSYVMSWVRQAPGKGLEWVSSISGNGGSTNYADSVKGRFTISRDNSKNTLFLEMNSLRAEDTAVYYCAKSLGTTTTFLGFDYWGQGTLVTVSS VL: DIQMTQSPSSVSASVGDRVTITCRASQGISSWLAWYQQKPGKAPKLLIYAASSLQSGVPSRFSGSGSGTYFTLTISSLQPEDFATYYCQQANSFPLTFGGGTKVEIK and give its measured koff.
0.000283
